Each entry below carries its reported T/C.
# Test system: P388 leukemia ip, CD2F1 mice, survival T/C
# ASSAY REMARKS: NCI In Vivo Anticancer Drug Screen. Data for tumor model P388 Leukemia (intraperitoneal) in CD2F1 (CDF1) mice
# REPORTED CONDITIONS: endpoint: median survival time; dose: 240.0 mg/kg/injection; schedule: Q01DX005 (ip); vehicle: Klucel (hydroxypropylcellulose) (HPC); higher = longer survival
Inconclusive results and toxic doses are left out.
MEASURED QUANTITY: T/C

{"COMPOUND": "Cc1ccc(-c2nc3scc(C)n3n2)cc1", "MEASURED QUANTITY": "T/C", "VALUE REPORTED": "103 % of control"}
{"COMPOUND": "O=C1/C(=C/c2cccs2)CCc2ccccc21", "MEASURED QUANTITY": "T/C", "VALUE REPORTED": "98 % of control"}
{"COMPOUND": "COc1cccc2sc(-n3c(C)nc4ccccc4c3=O)nc12", "MEASURED QUANTITY": "T/C", "VALUE REPORTED": "87 % of control"}
{"COMPOUND": "CCOC(=O)/C=C1\\CSC2=NC(c3ccccc3)CN21 (stereo unspecified)", "MEASURED QUANTITY": "T/C", "VALUE REPORTED": "86 % of control"}
{"COMPOUND": "S=c1c2ccccc2c(=S)n(-c2ccccc2)n1-c1ccccc1", "MEASURED QUANTITY": "T/C", "VALUE REPORTED": "92 % of control"}
{"COMPOUND": "OCC1CSC(=S)N1Cc1ccccc1 (stereo unspecified)", "MEASURED QUANTITY": "T/C", "VALUE REPORTED": "107 % of control"}
